subject-of-test: Stimulator of interferon genes protein (Homo sapiens)
protocol-details: Activation of human STING (139 to 379 residues) expressed in THP1-Blue ISG cells at 10 uM incubated for 24 hrs by quanti-blue SEAP reporter gene assay relative to control
Assay type: cell-based
applied-conditions: filed as activator
readout-kind: fold change (FC)

# structure, fold change (FC)
rows = [
    ("CCn1nc(C)cc1C(=O)/N=c1\\[nH]c2cc(-c3ncn[nH]3)cc(OC)c2n1C/C=C/Cn1/c(=N/C(=O)c2cc(C)nn2CC)[nH]c2cc(C#N)cc(OCCCN3CCOCC3)c21", 11.1),
    ("CCn1nc(C)cc1C(=O)/N=c1\\[nH]c2cc(-c3ncn[nH]3)cc(OC)c2n1[C@H]1CC[C@H](n2/c(=N/C(=O)c3cc(C)nn3CC)[nH]c3cc(C(N)=O)cc(OCCCN4CCOCC4)c32)CC1", 3.86),
]

a = CCn1nc(C)cc1/C=C/c1nc2cc(C(N)=O)cc(OC)c2n1C/C=C/Cn1c(/C=C/c2cc(C)nn2CC)nc2cc(C(N)=O)cc(OCCCN3CCOCC3)c21
b = CCn1nc(C)cc1C(=O)/N=c1\[nH]c2cc(-c3ncn[nH]3)cc(OC)c2n1C/C=C/Cn1/c(=N/C(=O)c2cc(C)nn2CC)[nH]c2cc(C(N)=O)c3c(c21)OCCO3
c = COc1cc(C(N)=O)cc2nc(C(=O)CCC(=O)O)n(C/C=C/Cn3c(C(=O)CCC(=O)O)nc4cc(C(N)=O)cc(OCCCN5CCOCC5)c43)c12
d = COC(=O)CCC(=O)c1nc2cc(C(N)=O)cc(OC)c2n1C/C=C/Cn1c(C(=O)CCC(=O)OC)nc2cc(C(N)=O)cc(OCCCN3CCOCC3)c21
Input line: Order the 4 compounds from highest to lowest fold change (FC). API: response body holds the labels in the requested order.
Output line: c, d, b, a

1 = CCn1nc(C)cc1C(=O)/N=c1\[nH]c2cc(-c3ncc[nH]3)cc(OC)c2n1C/C=C/Cn1/c(=N/C(=O)c2cc(C)nn2CC)[nH]c2cc(-c3ncc[nH]3)cc(OCCCN3CCOCC3)c21
2 = CCn1nc(C)cc1C(=O)/N=c1\[nH]c2cc(C#N)cc(OC)c2n1C/C=C/Cn1/c(=N/C(=O)c2cc(C)nn2CC)[nH]c2cc(C#N)cc(OCCCN3CCOCC3)c21
Input line: Task for the reader: decide whether 1 or 2 has the larger fold change (FC). When you have decided, please share the label of that item.
Output line: 2
(2: 7.9, 1: 1.22)

I = CCn1nc(C)cc1C(=O)/N=c1\[nH]c2cc(C(N)=O)cc(OC)c2n1C/C=C/Cn1c(C(=O)CCC(=O)OC)nc2cc(C(N)=O)cc(OCCCN3CCOCC3)c21
II = CCn1nc(C)cc1C(=O)/N=c1\[nH]c2cc(C(N)=O)cc(OC)c2n1C/C=C/Cn1/c(=N/C(=O)c2cc(C)nn2CC)[nH]c2cc(C#N)cc(OCCCN3CCOCC3)c21
Input line: # argmax over fold change (FC) for candidates I and II // respond with label for picked entry
Output line: II

----------
subject-of-test: Stimulator of interferon genes protein (Homo sapiens, UniProt Q86WV6)
Sequence (Q86WV6 whole entry, the tested form may be a part): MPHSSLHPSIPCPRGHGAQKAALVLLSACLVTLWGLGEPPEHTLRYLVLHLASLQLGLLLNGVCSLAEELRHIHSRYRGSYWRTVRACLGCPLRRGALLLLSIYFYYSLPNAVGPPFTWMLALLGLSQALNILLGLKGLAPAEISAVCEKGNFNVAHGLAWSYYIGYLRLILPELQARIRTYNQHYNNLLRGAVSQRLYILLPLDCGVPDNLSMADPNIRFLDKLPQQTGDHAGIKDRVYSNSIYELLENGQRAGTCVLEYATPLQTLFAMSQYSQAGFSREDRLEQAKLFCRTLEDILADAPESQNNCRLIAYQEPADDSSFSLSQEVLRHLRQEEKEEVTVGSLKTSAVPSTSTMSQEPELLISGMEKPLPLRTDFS
protocol-details: Activation of human STING (139 to 379 residues) expressed in THP1-Blue ISG cells at 10 uM incubated for 24 hrs by quanti-blue SEAP reporter gene assay relative to control
Type: cell-based
applied-conditions: filed as activator
readout-kind: fold change (FC)

// solved cases for fold change (FC) follow
# structure, subject-of-test, fold change (FC)
data = [
    ("CCn1nc(C)cc1C(=O)/N=c1\\[nH]c2cc(C3=NCCO3)cc(OC)c2n1C/C=C/Cn1/c(=N/C(=O)c2cc(C)nn2CC)[nH]c2cc(C(N)=O)cc(OCCCN3CCOCC3)c21", "Stimulator of interferon genes protein (Homo sapiens, UniProt Q86WV6)", 18.3),
    ("CCn1nc(C)cc1C(=O)/N=c1\\[nH]c2cc(-c3ncc[nH]3)cc(OC)c2n1C/C=C/Cn1/c(=N/C(=O)c2cc(C)nn2CC)[nH]c2cc(C(N)=O)cc(OCCCN3CCOCC3)c21", "Stimulator of interferon genes protein (Homo sapiens, UniProt Q86WV6)", 17.5),
    ("CCn1nc(C)cc1C(=O)/N=c1\\[nH]c2cc(-c3ncn[nH]3)cc(OC)c2n1C/C=C/Cn1/c(=N/C(=O)c2cc(C)nn2CC)[nH]c2cc(C(N)=O)c3ccoc3c21", "Stimulator of interferon genes protein (Homo sapiens, UniProt Q86WV6)", 17),
    ("CCn1nc(C)cc1C(=O)/N=c1\\[nH]c2cc(C(N)=O)cc(OC)c2n1C/C=C/Cn1c(C(=O)CCC(=O)O)nc2cc(C(N)=O)cc(OCCCN3CCOCC3)c21", "Stimulator of interferon genes protein (Homo sapiens, UniProt Q86WV6)", 0.86),
]

1 = CCn1nc(C)cc1CCc1nc2cc(C(N)=O)cc(OC)c2n1C/C=C/Cn1c(CCc2cc(C)nn2CC)nc2cc(C(N)=O)cc(OCCCN3CCOCC3)c21
2 = CCn1nc(C)cc1C(=O)/N=c1\[nH]c2cc(C(N)=O)cc(OC)c2n1C/C=C/Cn1/c(=N/C(=O)c2cc(C)nn2CC)[nH]c2cc(-c3ncn[nH]3)cc(OCCCN3CCOCC3)c21
Input line: So which one has the bigger fold change (FC) here, 1 or 2 ? Lab note: record the label of whichever item you select.
Output line: 2
(2: 17, 1: 0.95)
